The origin of these recorded values is PubChem BioAssay (EPA / NIEHS).

Target: Peroxisome proliferator-activated receptor gamma (Homo sapiens) (UniProt P37231)
Sequence (P37231 whole entry, looked up): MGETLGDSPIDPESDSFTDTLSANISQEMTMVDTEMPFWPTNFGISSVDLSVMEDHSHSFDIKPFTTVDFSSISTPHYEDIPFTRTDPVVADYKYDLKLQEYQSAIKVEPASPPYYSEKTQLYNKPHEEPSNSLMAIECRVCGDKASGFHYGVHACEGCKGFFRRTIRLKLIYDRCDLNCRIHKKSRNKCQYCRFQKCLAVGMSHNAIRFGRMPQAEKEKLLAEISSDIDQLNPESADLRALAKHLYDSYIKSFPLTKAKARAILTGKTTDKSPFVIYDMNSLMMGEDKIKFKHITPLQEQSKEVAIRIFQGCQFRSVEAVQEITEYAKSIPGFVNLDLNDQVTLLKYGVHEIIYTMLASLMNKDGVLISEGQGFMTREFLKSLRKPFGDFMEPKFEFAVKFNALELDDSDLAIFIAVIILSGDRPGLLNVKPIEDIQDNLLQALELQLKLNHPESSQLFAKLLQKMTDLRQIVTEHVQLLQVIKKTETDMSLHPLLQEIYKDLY
Experiment: ATG_PPARg_TRANS: Attagene TRANS-FACTORIAL HepG2 Assay for human Peroxisome Proliferator-activated Receptor-gamma (PPARg) (AID 2283007)
Records with an inconclusive call do not appear. Active and inactive are the calls of the source. How the source made its calls: active means hit-call score of the fitted dose curve at least 0.9, where 1 is the maximum; inconclusive means response in the unintended direction; inactive means score below 0.9.
Respond with a class label; see yes = active, no = inactive

Qu. Recorded call for CC(C)(C)c1ccc(OC(=O)c2ccccc2O)cc1 ?
Ans. no

Qu. Recorded call for O=S(=O)(Oc1ccc(Cl)cc1Cl)c1ccccc1 ?
Ans. yes

Qu. Recorded call for c1c[nH]cn1 ?
Ans. no

Qu. Recorded call for CC(C)=CCC/C(C)=C\C#N ?
Ans. no

Qu. Recorded call for FC(F)=C(F)OC(F)(F)C(F)(F)C(F)(F)F ?
Ans. no

Qu. Recorded call for CC(C)c1ccc2c(c1)CC[C@H]1[C@](C)(CN)CCC[C@]21C ?
Ans. yes

Qu. Recorded call for CCCCC(CC)CCC(CC(C)C)OS(=O)(=O)O (configuration not stated) ?
Ans. yes

====

Assay: ATG_SREBP_CIS: Attagene CIS-FACTORIAL HepG2 Assay for human Sterol Regulatory Element Binding (SREBP) (AID 2282962)
Settings: HepG2 Attagene cis-factorial SREBP reporter, mRNA; actives raise or lower the signal
Activity calls are given as the source filed them. The calls were made as follows: active = hit-call score of the fitted dose curve at least 0.9, where 1 is the maximum; inactive = score below 0.9.
Respond with a class label; see active, inactive

Qu. Recorded call for Cc1cc(C)c(C)cc1C ?
Ans. inactive

Qu. Recorded call for CCCCCCOc1cc(C)c(O)c(C)c1C ?
Ans. inactive

Qu. Recorded call for CCOc1nc(F)cc2nc(S(=O)(=O)Nc3c(Cl)cccc3C(=O)OC)nn12 ?
Ans. inactive

Qu. Recorded call for C=CC(C)(CCC=C(C)C)OC(=O)C(C)C (stereo not given) ?
Ans. inactive

Qu. Recorded call for O=C(c1ccccc1)C1CCC1 ?
Ans. inactive

Qu. Recorded call for O=S1(=O)OC(c2ccc(O)cc2)(c2ccc(O)cc2)c2ccccc21 ?
Ans. inactive

Qu. Recorded call for C[Si](C)(C)O[Si](O)(O)O ?
Ans. inactive

Qu. Recorded call for COCc1c(C(C)C)nc(C(C)C)c(/C=C/[C@@H](O)C[C@@H](O)CC(=O)O)c1-c1ccc(F)cc1 ?
Ans. inactive

Qu. Recorded call for CCCC(=O)OCc1ccccc1 ?
Ans. inactive

Qu. Recorded call for CC(C)CCCC(C)CC=O (stereo not given) ?
Ans. inactive

Qu. Recorded call for CC=CCO ?
Ans. inactive

Qu. Recorded call for C=CCOCC(O)CCl (stereo not given) ?
Ans. inactive

Qu. Recorded call for C=C(C)C(=O)OCCOc1ccccc1 ?
Ans. inactive

Qu. Recorded call for CNC(=S)NN ?
Ans. inactive

Qu. Recorded call for CCO[Si](C)(OCC)OCC ?
Ans. inactive

Qu. Recorded call for C=CC(C)(CCC=C(C)C)OC(=O)CC(C)C (stereo not given) ?
Ans. active

Qu. Recorded call for C1=CCCC1 ?
Ans. inactive

Qu. Recorded call for CC(CC=O)c1ccccc1 (stereo not given) ?
Ans. inactive

Qu. Recorded call for c1cc(N(CC2CO2)CC2CO2)ccc1OCC1CO1 (stereo not given) ?
Ans. active

Qu. Recorded call for CCC(CO)CO ?
Ans. inactive

Qu. Recorded call for c1ccc2c(c1)ccc1ncccc12 ?
Ans. inactive

Qu. Recorded call for CCCCCCCCCCc1ccccc1 ?
Ans. inactive

Qu. Recorded call for CCCOC(=O)CCCCC(=O)OCCC ?
Ans. inactive

Qu. Recorded call for COC(=O)c1ccc2cc(C(=O)OC)ccc2c1 ?
Ans. inactive

Qu. Recorded call for Cc1ccc(C2OC[C@@H]3OC(c4ccc(C)cc4)O[C@H]([C@H](O)CO)[C@@H]3O2)cc1 (stereo not given in full) ?
Ans. inactive

Qu. Recorded call for CCOC(=O)CC ?
Ans. inactive

Qu. Recorded call for O=C1c2cccc(O)c2C(=O)c2c(O)cc(CO)cc21 ?
Ans. inactive

Qu. Recorded call for CCCOCCOCCOCCO ?
Ans. inactive

Qu. Recorded call for C[Si](C)O[Si](C)(C)O[Si](C)(C)O[Si](C)C ?
Ans. inactive

Qu. Recorded call for CC(C)c1ccc2c(c1)CC[C@H]1[C@](C)(CN)CCC[C@]21C ?
Ans. inactive

====

Experiment: ATG_NFI_CIS: Attagene CIS-FACTORIAL HepG2 Assay for human Nuclear Factor I (NFI) (AID 2282989)
Settings: HepG2 cis-regulatory reporter, NFI response element transcription; actives raise or lower the signal
Calls of active or inactive are those of the source. The calls were made as follows: active = hit-call score of the fitted dose curve at least 0.9, where 1 is the maximum; inactive = score below 0.9.
Respond with a class label; see T (active), F (inactive)

Qu. Recorded call for COC(=O)C1=C(C)NC(C)=C(C(=O)OCC(C)C)C1c1ccccc1[N+](=O)[O-] (centres undefined) ?
Ans. F

Qu. Recorded call for CC(=O)Oc1ccc(C(C)=O)cc1 ?
Ans. F

Qu. Recorded call for O=CN1CCCCC1 ?
Ans. F

Qu. Recorded call for Cc1cccc(OCCOc2cccc(C)c2)c1 ?
Ans. F

Qu. Recorded call for c1ccc(CCCc2ccncc2)cc1 ?
Ans. F

Qu. Recorded call for O=C(Nc1ccccc1SSc1ccccc1NC(=O)c1ccccc1)c1ccccc1 ?
Ans. F

Qu. Recorded call for CCO[Si](C)(OCC)OCC ?
Ans. F

Qu. Recorded call for COC(=O)c1ccc2cc(C(=O)OC)ccc2c1 ?
Ans. F

Qu. Recorded call for CCCCCCCCCCCSCC(=O)O ?
Ans. F

Qu. Recorded call for CCN(CC)c1ccc(C(=O)c2ccccc2C(=O)O)c(O)c1 ?
Ans. F

Qu. Recorded call for CCCCCC(C)O (centres undefined) ?
Ans. F

Qu. Recorded call for C[Si](C)O[Si](C)(C)O[Si](C)(C)O[Si](C)C ?
Ans. F

Qu. Recorded call for OCCc1ccncc1 ?
Ans. F

Qu. Recorded call for NNC(=O)c1cccc(C(=O)NN)c1 ?
Ans. F

Qu. Recorded call for O=C(O)Cc1c(Cl)ccc(Cl)c1Cl ?
Ans. F

Qu. Recorded call for CC(=O)Nc1ccc2c(c1)Cc1cc(NC(C)=O)ccc1-2 ?
Ans. F

Qu. Recorded call for CCCCCCCCCCCCCCCCCC#N ?
Ans. F

Qu. Recorded call for CCCC(C)CCC(C)=O (centres undefined) ?
Ans. F

Qu. Recorded call for CCCCCCOc1cc(C)c(O)c(C)c1C ?
Ans. F

Qu. Recorded call for CCCCCCOC(=O)C(C)CC (centres undefined) ?
Ans. F

Qu. Recorded call for COc1c2ccoc2cc2oc(=O)ccc12 ?
Ans. F

Qu. Recorded call for CC=C1CC2C=CC1C2 (centres undefined) ?
Ans. F

Qu. Recorded call for c1cc(N(CC2CO2)CC2CO2)ccc1OCC1CO1 (centres undefined) ?
Ans. T

Qu. Recorded call for CC(C)=CC1CC(C)CCO1 (centres undefined) ?
Ans. F

Qu. Recorded call for CC1(C)O[C@@H]2C[C@H]3[C@@H]4C[C@H](F)C5=CC(=O)CC[C@]5(C)[C@H]4[C@@H](O)C[C@]3(C)[C@]2(C(=O)CO)O1 ?
Ans. F

Qu. Recorded call for CC(C)=CCC/C(C)=C\C#N ?
Ans. F

Qu. Recorded call for O=C(c1ccccc1)c1ccc(O)c(O)c1O ?
Ans. F

Qu. Recorded call for O=c1n(CCO)c(=O)n(CCO)c(=O)n1CCO ?
Ans. F

Qu. Recorded call for O=C1CCCC(=O)O1 ?
Ans. F

====

Test: BSK_4H_SRB: Viability Assessment in the BioMAP Diversity Plus: 4H Assay (AID 2283027);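 further: cells exposed to compound for 24 h before staining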
Conditions: primary human endothelial cells (HUVEC)
Active and inactive are the calls of the source. How the source made its calls: active means hit-call score of the fitted dose curve at least 0.9, where 1 is the maximum; inactive means score below 0.9.
Respond with a class label; see active, inactive

Qu. Recorded call for C=CCOc1c(Br)cc(Br)cc1Br ?
Ans. inactive

Qu. Recorded call for S=C(NC1CCCCC1)NC1CCCCC1 ?
Ans. inactive

Qu. Recorded call for O=C1CCCN1CCO ?
Ans. inactive

Qu. Recorded call for CC(C)C(=O)C(C)C ?
Ans. inactive

Qu. Recorded call for O=C(Nc1ccccc1SSc1ccccc1NC(=O)c1ccccc1)c1ccccc1 ?
Ans. inactive

Qu. Recorded call for CCCCNc1ccc(NCCCC)c2c1C(=O)c1ccccc1C2=O ?
Ans. inactive

Qu. Recorded call for c1ccc2c(c1)ccc1cc3c(ccc4ccccc43)cc12 ?
Ans. inactive

Qu. Recorded call for CCCCCCCCCCCCCCCC[N+](C)(C)CC ?
Ans. active

Qu. Recorded call for C=CC(=O)OCC(Br)CBr (stereo not drawn) ?
Ans. active

Qu. Recorded call for C#CC1(O)CC[C@H]2[C@@H]3CCC4=CCCC[C@@H]4[C@H]3CC[C@@]21C (stereo partly drawn) ?
Ans. active

Qu. Recorded call for O=C(Cl)c1cc(C(=O)Cl)cc(C(=O)Cl)c1 ?
Ans. active

Qu. Recorded call for C=CC=CC=CCCCCC ?
Ans. inactive

Qu. Recorded call for CCOc1nc(F)cc2nc(S(=O)(=O)Nc3c(Cl)cccc3C(=O)OC)nn12 ?
Ans. inactive
